Target: Pannexin 1 (PANX1) (Homo sapiens)
Sequence (Q96RD7 1-379 limits assumed): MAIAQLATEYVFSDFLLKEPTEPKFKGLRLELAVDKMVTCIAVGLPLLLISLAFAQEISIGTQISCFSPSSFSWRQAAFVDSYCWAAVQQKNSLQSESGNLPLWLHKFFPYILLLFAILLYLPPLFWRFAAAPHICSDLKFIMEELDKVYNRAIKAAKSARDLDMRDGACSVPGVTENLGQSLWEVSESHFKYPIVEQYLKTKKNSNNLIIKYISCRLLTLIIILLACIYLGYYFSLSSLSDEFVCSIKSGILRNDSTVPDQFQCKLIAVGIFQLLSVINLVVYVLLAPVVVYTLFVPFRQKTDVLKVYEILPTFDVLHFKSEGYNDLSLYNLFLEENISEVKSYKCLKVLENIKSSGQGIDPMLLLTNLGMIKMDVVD
Test: whole-cell voltage clamp in HEK293T cells (-50 mV); CETSA (Tagg […] to […] °C)
measurement-kind: IC50

Recorded IC50 (compound COc1ccc(Cn2cc(C(=O)O)c(=O)c3cc(F)c(N4CCN(C)CC4)nc32)c(OC)c1 ): ~730 nM
